B1: library; a variant is named by its letters at N, in order (parent)
chain: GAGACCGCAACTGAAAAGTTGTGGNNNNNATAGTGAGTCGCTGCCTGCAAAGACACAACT

- Variants of: B1
- test: ligation selection enrichment (abundance after / before one-round selection) (fold); higher = more template-directed ligation activity
- test.conditions: with T7Psub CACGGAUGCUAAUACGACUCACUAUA; MgCl2 25 mM; 42 °C; 4 h; pH 8.5
Classification field: Y = ligation selection enrichment at or over 0.3; N = ligation selection enrichment under 0.3.

[
  {
    "mutation.key": "ATATT",
    "group.label": "N"
  },
  {
    "mutation.key": "CATAT",
    "group.label": "Y"
  },
  {
    "mutation.key": "CCCCT",
    "group.label": "Y"
  }
]

Asked: Please check the record AGTTA and state if its ligation selection enrichment is at or above 0.3.
Given back: Y

Asked: Please check the record TTTGA and state if its ligation selection enrichment is at or above 0.3.
Given back: Y

Asked: Please check the record CGGAT and state if its ligation selection enrichment is at or above 0.3.
Given back: Y

Asked: Please check the record TCGCC and state if its ligation selection enrichment is at or above 0.3.
Given back: N

Asked: Please check the record TCGTG and state if its ligation selection enrichment is at or above 0.3.
Given back: N

Asked: Please check the record AGGGA and state if its ligation selection enrichment is at or above 0.3.
Given back: Y

Asked: Please check the record ACATG and state if its ligation selection enrichment is at or above 0.3.
Given back: Y
